# target_system: T1, human GFRα3 expressed with a C-terminal myc-myc-hexahistidine tag (human, UniProt O60609 32-374, biotinylated (sites not given) in ELISA format 2 and in the Octet cross-competition; not in SPR)
# T1 construct: also called hGFRα3-mmh; hGFRα3-mmH
# T1 sequence (O60609 other isoform, or with tags, fused parts or gaps limits assumed): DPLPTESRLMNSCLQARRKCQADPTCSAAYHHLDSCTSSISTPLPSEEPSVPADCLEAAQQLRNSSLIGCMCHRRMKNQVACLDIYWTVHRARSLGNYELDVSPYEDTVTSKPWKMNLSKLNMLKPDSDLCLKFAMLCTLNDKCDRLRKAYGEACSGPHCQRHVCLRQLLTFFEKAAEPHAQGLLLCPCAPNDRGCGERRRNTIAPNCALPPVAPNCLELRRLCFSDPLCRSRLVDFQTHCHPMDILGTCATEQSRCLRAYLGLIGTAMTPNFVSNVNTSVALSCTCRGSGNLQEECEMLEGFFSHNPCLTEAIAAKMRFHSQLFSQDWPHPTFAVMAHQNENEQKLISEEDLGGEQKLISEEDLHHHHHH
# assay_explanation: Octet cross-competition; biotin-hGFRα3-mmH pre-saturated with first antibody H4H2243N2

binder: H4H2291S (antibody, human IgG4, V domains shown, human IgG4 Fc (H4H)) VH: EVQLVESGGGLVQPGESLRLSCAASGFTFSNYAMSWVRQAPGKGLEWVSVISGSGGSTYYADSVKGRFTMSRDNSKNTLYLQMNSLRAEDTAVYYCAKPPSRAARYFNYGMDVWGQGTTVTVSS VL: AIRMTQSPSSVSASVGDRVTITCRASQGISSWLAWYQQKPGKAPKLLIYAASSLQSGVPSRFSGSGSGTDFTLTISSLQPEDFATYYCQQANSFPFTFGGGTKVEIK
binding response of second antibody (nm): 0.52

binder: H4H2350P (antibody, human IgG4, V domains shown, human IgG4 Fc (H4H)) VH: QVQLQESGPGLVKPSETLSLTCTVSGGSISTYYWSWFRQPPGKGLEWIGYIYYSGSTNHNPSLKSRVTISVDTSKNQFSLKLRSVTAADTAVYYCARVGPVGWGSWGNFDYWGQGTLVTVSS VL: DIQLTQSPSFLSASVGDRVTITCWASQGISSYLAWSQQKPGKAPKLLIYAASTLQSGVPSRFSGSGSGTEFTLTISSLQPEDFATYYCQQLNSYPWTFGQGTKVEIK
binding response of second antibody (nm): 1.2
